So I've got a bunch of compounds here, and I need their Potency shift value values.
Tested on: HIV
Format: cell-based
Conditions: EC50 in the presence of human serum (25%) versus without human serum, MT-4 cells
Please state the value as a number alone, without comment.

Given the entry Cc1c([C@H](OC(C)(C)C)C(=O)O)c(-c2ccc(Cl)cc2)c2cc(C)n3c2c1N(C)CC3c1ccccc1 (some centres unmarked) [Compound I-331] , what Potency shift value was observed with HIV?
7

// repeat for COc1cnc(N2CCn3c(C)cc4c(-c5c(F)cc(C)cc5F)c([C@H](OC(C)(C)C)C(=O)O)c(C)c2c43)nc1 and report
24

// repeat for Cc1c([C@H](OC(C)(C)C)C(=O)O)c(-c2ccc(Cl)cc2)c2cc(C)n3c2c1N(C)CC3c1ccccc1 (some centres unmarked) [Compound I-332] and report
25

// repeat for Cc1c([C@H](OC(C)(C)C)C(=O)O)c(-c2ccc(Cl)cc2)c2cc(C)n3c2c1N(c1nc2ccccc2s1)CC3 and report
12

// repeat for Cc1c([C@H](OC(C)(C)C)C(=O)O)c(-c2ccc(Cl)cc2)c2cc(C)n3c2c1N(c1ncc(OCCCO)cn1)CC3 and report
10

// repeat for Cc1c([C@H](OC(C)(C)C)C(=O)O)c(-c2ccc(Cl)cc2)c2cc(C)n3c2c1C=CC3 and report
14

// repeat for Cc1c([C@H](OC(C)(C)C)C(=O)O)c(-c2ccc(Cl)cc2)c2cc(C)n3c2c1N(C(=O)CN(C)C)CC3 and report
4.5

// repeat for CNCC(=O)N1CCn2c(C)cc3c(-c4ccc(Cl)cc4)c([C@H](OC(C)(C)C)C(=O)O)c(C)c1c32 and report
6.8

// repeat for Cc1cnc(N2CCn3c(C)cc4c(-c5ccc(Cl)cc5)c([C@H](OC(C)(C)C)C(=O)O)c(C)c2c43)nc1 and report
21

// repeat for Cc1c([C@H](OC(C)(C)C)C(=O)O)c(-c2ccc(F)cc2)c2cc(C)n3c2c1N(CCN(C)C)CC3 and report
1.4

// repeat for Cc1ccc(-c2c([C@H](OC(C)(C)C)C(=O)O)c(C)c3c4c2cc(C)n4CCN3c2cccc(C(F)(F)F)n2)cc1 and report
5.1

// repeat for Cc1c([C@H](OC(C)(C)C)C(=O)O)c(-c2ccc(Cl)cc2)c2cc(C)n3c2c1N(c1cccc(=O)n1C)CC3 and report
7.6

// repeat for Cc1ccc(-c2c(C(OC(C)(C)C)C(=O)O)c(C)c3c4c2cc(C)n4CCN3CCN(C)C)cc1 (centres unmarked) and report
1.4

// repeat for Cc1ccc(-c2c([C@H](OC(C)(C)C)C(=O)O)c(C)c3c4c2cc(C)n4CCN3c2nc3c(s2)CCN(C)C3)cc1 and report
4.5

// repeat for Cc1ccc(-c2c([C@H](OC(C)(C)C)C(=O)O)c(C)c3c4c2cc(C)n4CCN3c2cccc(CO)n2)cc1 and report
9.2

// repeat for Cc1c([C@H](OC(C)(C)C)C(=O)O)c(-c2ccc(Cl)cc2)c2cc(C)n3c2c1N(c1ncccc1F)CC3 and report
21

// repeat for Cc1ccc(-c2c([C@H](OC(C)(C)C)C(=O)O)c(C)c3c4c2cc(C)n4CCN3CCN2C3CCC2COC3)cc1 and report
2.3
